# System: mtPTP
# Assay protocol: Ca2+ retention capacity (CRC) of isolated mouse liver mitochondria
# Assay type: biochemical
# Applied conditions: Mouse Liver Mitochondria (MLM), comparative examples
Please note: CRC/CRC0 at 1.25 μM exactly at 2 is -1. Only values below 2 get 1.

[
  {
    "Molecule": "C#Cc1ccc(C)c(NC(=O)c2cn(-c3ccc(F)c(O)c3)nn2)c1",
    "Answer label": 1
  },
  {
    "Molecule": "Cc1ccc(Cl)cc1NC(=O)c1cn(-c2ccc(C)c(O)c2Cl)nn1 [drawing 66]",
    "Answer label": 1
  },
  {
    "Molecule": "Cc1ccc(Cl)cc1NC(=O)c1cn(-c2cc(O)cc(Cl)c2)nn1 [drawing 69]",
    "Answer label": -1
  },
  {
    "Molecule": "Cc1ccc(Cl)cc1NC(=O)c1cn(-c2ccc(F)c(NC(=O)C(F)(F)F)c2)nn1",
    "Answer label": 1
  },
  {
    "Molecule": "CC(=O)c1ccc(C)c(NC(=O)c2cn(-c3ccc(F)c(O)c3)nn2)c1",
    "Answer label": 1
  },
  {
    "Molecule": "C#Cc1ccc(Cl)cc1NC(=O)c1cn(-c2ccc(F)c(O)c2)nn1",
    "Answer label": -1
  },
  {
    "Molecule": "Cc1ccc(-n2cc(C(=O)Nc3cc(Cl)ccc3C)nn2)cc1O [drawing 67]",
    "Answer label": 1
  },
  {
    "Molecule": "Cc1ccc(Cl)cc1NC(=O)c1cn(-c2cc(F)cc(OC(=O)N(C)C)c2)nn1",
    "Answer label": 1
  },
  {
    "Molecule": "CC(=O)Nc1cc(-n2cc(C(=O)Nc3cc(Cl)ccc3C)nn2)ccc1F",
    "Answer label": 1
  },
  {
    "Molecule": "Cc1ccc(Cl)cc1NC(=O)c1cn(-c2ccc(F)c(NS(=O)(=O)C(F)(F)F)c2)nn1",
    "Answer label": 1
  },
  {
    "Molecule": "Cc1ccc(Cl)cc1NC(=O)c1cn(-c2cccc(C(=O)O)c2)nn1",
    "Answer label": 1
  },
  {
    "Molecule": "CCOC(=O)Oc1cc(-n2cc(C(=O)Nc3cc(Cl)ccc3C)nn2)ccc1F",
    "Answer label": 1
  },
  {
    "Molecule": "Cc1ccc(Cl)cc1NC(=O)c1cn(-c2cc(O)ccc2F)nn1 [drawing 53]",
    "Answer label": 1
  },
  {
    "Molecule": "Cc1ccc(Cl)cc1NC(=O)c1cn(-c2ccc(F)c(O)c2)nn1 [drawing 47]",
    "Answer label": 1
  },
  {
    "Molecule": "Cc1ccc(Cl)cc1NC(=O)c1cn(-c2cccc(O)c2F)nn1 [drawing 51]",
    "Answer label": -1
  },
  {
    "Molecule": "Cc1ccc(Cl)cc1NC(=O)c1cn(-c2ccc(F)c(O)c2F)nn1 [drawing 58]",
    "Answer label": -1
  },
  {
    "Molecule": "Cc1ccc(Cl)cc1NC(=O)c1cn(-c2ccc(Br)c(NS(C)(=O)=O)c2)nn1",
    "Answer label": 1
  },
  {
    "Molecule": "Cc1ccc(Cl)cc1NC(=O)c1cc(-c2ccc(F)c(O)c2)on1 [drawing 45]",
    "Answer label": -1
  },
  {
    "Molecule": "Cc1ccc(Cl)cc1NC(=O)c1cn(-c2cc(O)cc(C(F)(F)F)c2)nn1 [drawing 71]",
    "Answer label": -1
  },
  {
    "Molecule": "Cc1ccc(Cl)cc1NC(=O)c1cn(-c2cccc(O)c2Cl)nn1 [drawing 70]",
    "Answer label": 1
  },
  {
    "Molecule": "Cc1ccc(I)cc1NC(=O)c1cn(-c2ccc(F)c(O)c2)nn1",
    "Answer label": -1
  },
  {
    "Molecule": "Cc1ccc(Cl)cc1NC(=O)c1cn(-c2cc(O)cc(F)c2)nn1 [drawing 52]",
    "Answer label": -1
  },
  {
    "Molecule": "Cc1ccc(Cl)cc1NC(=O)c1cn(-c2ccc3[nH]c(=O)[nH]c3c2)nn1",
    "Answer label": 1
  },
  {
    "Molecule": "Cc1ccc(Cl)cc1NC(=O)c1cn(-c2ccc(F)c(N)c2)nn1",
    "Answer label": 1
  },
  {
    "Molecule": "Cc1ccc(Cl)cc1NC(=O)c1cn(-c2ccc(F)c(O)c2)nn1 [drawing 46]",
    "Answer label": -1
  },
  {
    "Molecule": "Cc1ccc(Cl)cc1NC(=O)c1cn(-c2cccc(O)c2C)nn1 [drawing 68]",
    "Answer label": 1
  },
  {
    "Molecule": "Cc1ccc(Cl)cc1NC(=O)c1cn(-c2ccc(F)c(OC(=O)N(C)C)c2)nn1",
    "Answer label": -1
  },
  {
    "Molecule": "Cc1ccc(Cl)cc1NC(=O)c1cn(-c2ccc(Cl)c(O)c2)nn1 [drawing 59]",
    "Answer label": -1
  },
  {
    "Molecule": "Cc1c(Cl)cccc1NC(=O)c1cn(-c2ccc(F)c(O)c2)nn1",
    "Answer label": -1
  },
  {
    "Molecule": "Cc1ccc(N=[N+]=[N-])cc1NC(=O)c1cn(-c2ccc(F)c(O)c2)nn1",
    "Answer label": -1
  },
  {
    "Molecule": "CC(=O)Oc1cc(-n2cc(C(=O)Nc3cc(Cl)ccc3C)nn2)ccc1F",
    "Answer label": -1
  },
  {
    "Molecule": "CCCOc1ccc(Cl)cc1NC(=O)c1cn(-c2ccc(F)c(O)c2)nn1",
    "Answer label": 1
  },
  {
    "Molecule": "Cc1ccc(Cl)cc1NC(=O)c1cn(-c2ccc(Br)c(O)c2)nn1 [drawing 60]",
    "Answer label": -1
  }
]

###

# Assay protocol: Plasma stability determination in mouse plasma
# Assay type: in vitro ADME
# Applied conditions: mouse, plasma, read-out: half-life (t1/2) in plasma
Endpoint: half-life at 1 µM (min)

[
  {
    "Molecule": "Cc1ccc(Cl)cc1NC(=O)c1cc(-c2ccc(F)c(O)c2)on1 [Compound 63, reference compound]",
    "Obs value": 21
  }
]

###

Documented half-life at 1 µM across a set of compounds
# Assay protocol: Plasma stability determination in mouse plasma
# Assay type: in vitro ADME
# Applied conditions: mouse, read-out: Mouse Plasma t1/2

[
  {
    "Compound": "COc1ccc(-c2cc(C(=O)Nc3cc(Cl)ccc3C)nn2C)cc1O [Compound 73]",
    "half-life at 1 µM": "1.42 h"
  },
  {
    "Compound": "Cc1ccc(Cl)cc1NC(=O)c1cc(-c2ccc(F)c(O)c2)[nH]n1 [Compound 72]",
    "half-life at 1 µM": "8.88 h"
  },
  {
    "Compound": "COc1ccc(-c2cc(C(=O)Nc3cc(Cl)cnc3C)nn2C)cc1O [Compound 74]",
    "half-life at 1 µM": "2.52 h"
  },
  {
    "Compound": "Cc1ccc(Cl)cc1NC(=O)c1cn(-c2ccc(F)c(O)c2)nn1 [TR001]",
    "half-life at 1 µM": "16.5 h"
  }
]
